Consider the following compounds and their measured TGI readings.
- System: SK-OV-3 ovarian
- method: NCI tumour cell line growth inhibition, 48 h

compound | TGI
COc1ccc(CC2NCCc3cc(OC)c(OC)cc32)cc1 (stereo not drawn) | > 100 µM
COc1ccccc1-c1nc2ccccc2c(=O)[nH]1 | > 100 µM
Cn1c(=O)c2[nH]c(C3CC(=O)CC(c4nc5c([nH]4)c(=O)n(C)c(=O)n5C)N3)nc2n(C)c1=O (stereo not drawn) | > 100 µM

###

- System: OVCAR-5 ovarian
- method: NCI tumour cell line growth inhibition, 48 h; in the data active = GI50 below about 0.43 µM; inactive = the rest
Outcome codes: active, inactive

compound | tested system | discrete label
O=C1/C(=C/c2ccc([N+](=O)[O-])o2)Oc2ccccc21 | OVCAR-5 ovarian | inactive
COc1cc(C2CC(c3ccc(Nc4ccnc5cc(Cl)ccc45)cc3)=NN2C=O)cc(OC)c1OC (centres undefined) | OVCAR-5 ovarian | inactive
COc1ccc(Cn2cnc3cc(C(=O)Nc4cccc5ccccc45)ccc32)c(OC)c1 | OVCAR-5 ovarian | active
COc1cc(C(=O)N2CCN(c3ccccc3OC)CC2)c(N)cc1OCc1ccccc1 | OVCAR-5 ovarian | inactive

###

List of GI50 values.
- Test system: MALME-3M melanoma
- method: NCI tumour cell line growth inhibition, 48 h

molecule | tested system | GI50
O=C1CSC(=S)N1Cc1cccnc1 | MALME-3M melanoma | 6.71 µM
O=c1[nH]ccc2nc(-c3ccc(CN4CCC(c5nc(-c6ccccn6)n[nH]5)CC4)cc3)c(-c3ccccc3)cc12 | MALME-3M melanoma | 2.09 µM
COc1cc(/C=C/c2sc3ccccc3[n+]2C)ccc1N(C)C | MALME-3M melanoma | 5.85 µM
CC1CC(C)/C(=N/NC(N)=O)C(C(O)CC2CCC(=O)NC2=O)C1 (stereo not drawn) | MALME-3M melanoma | 3.21 µM
O=C1Nc2ccccc2/C1=C/c1cn(C(=O)c2c(Cl)cccc2Cl)c2ccccc12 | MALME-3M melanoma | 2.61 µM
CCCCCCCCCCCCCCCCOC(=O)c1c(C)[nH]c(/C=C2\N=C(c3ccc[nH]3)C=C2OC)c1C | MALME-3M melanoma | 3.67 µM
CCSc1nc(N2CCCCC2)c2cn[nH]c2n1 | MALME-3M melanoma | 37.1 µM
O[C@@H]1CCCN1Cc1cc2cc3c(cc2c2cc(OCc4ccccc4)ccc12)OCO3 | MALME-3M melanoma | 2.37 µM

###

- System: DU-145 prostate
- method: NCI tumour cell line growth inhibition, 48 h
Overview of reported GI50 across a group of compounds:

compound | GI50
CC1CC(C)/C(=N/NC(N)=O)C(C(O)CC2CCC(=O)NC2=O)C1 (stereo unspecified) | 3.78 µM
C/C1=C\CC[C@@]2(C)O[C@@H]2C[C@@H]2[C@H](C/C(C)=C/CC1)OC(=O)C21CCN=N1 (stereo partly specified) | > 100 µM
O=C(N/N=c1/ccoc2cccnc12)N1CCN(c2ncccn2)CC1 | 0.796 µM
COc1ccc(/C(=N\O)c2cc(OC)c(OC)c(OC)c2)c(OC)c1N | 4.02 µM
CC(=O)c1c(O)ccc2c(C)c(C(=O)O)oc12 | > 100 µM
c1ccc2c(Nc3ccc(Oc4ccc(Nc5c6ccccc6nc6ccccc56)cc4)cc3)c3ccccc3nc2c1 | 0.403 µM

###

- Tested on: UACC-62 melanoma
- method: NCI tumour cell line growth inhibition, 48 h

compound | TGI
O=c1oc2cc(O)ccc2cc1-c1nc2ccccc2s1 | 41.7 µM
COc1cc2c(oc(=O)c3cc4ccoc4c(OC)c32)c2cccc(O)c12 | > 100 µM
CC(=O)O[C@H]1[C@@H](OC2CCCC2(c2ccccc2)c2ccccc2)O[N+]([O-])=C[C@@]12COCc1cc3c(cc12)OCO3 (stereo partly specified) | 25.9 µM
O=C(Nc1nncs1)NS(=O)(=O)n1cnc2ccccc21 | > 100 µM
O=C(NCC(=O)N1CC[C@H](NC2CCC(O)(c3ccc(-c4ncccn4)cn3)CC2)C1)c1cccc(C(F)(F)F)c1 (stereo partly specified) | > 100 µM
COc1ccc(-c2oc3cc(OC)c(OC)c(OC)c3c(=O)c2OC)cc1OC | > 100 µM
CC(=O)O[C@H]1[C@H](OC(C)=O)[C@@H](CN=[N+]=[N-])OCO[C@@H]1CN=[N+]=[N-] | > 100 µM
COc1cc(S(=O)(=O)Nc2ccc(-c3csc(N4C(=O)C(C)SC4c4ccccc4O)n3)cc2)ccc1Cl (stereo unspecified) | > 100 µM
O=c1[nH]c(=O)n(C2CC(O)C(CO)O2)cc1C#Cc1cc(C(F)(F)F)cc(C(F)(F)F)c1 (stereo unspecified) | > 31.6 µM
CC(=O)O[C@H]1CC[C@H]2[C@@H]3CCC4=C(C(=O)C=CC4(C)OC(C)=O)[C@H]3CC[C@]12C (stereo partly specified) | 74.5 µM
COc1cc2c(cc1OCCCCCn1c(-c3ccco3)nc3ccccc31)N=C[C@@H]1CCCN1C2=O | < 0.0106 µM
COc1cc(-n2cc(-c3ccc(F)cc3)[nH]c2=S)cc(OC)c1OC | > 100 µM
CC(=O)[O-].CC(=O)[O-].O=C(N/N=C/c1cc(Cl)cc(Cl)c1[OH2+])c1ccncc1.[Zn+2] | > 100 µM
COP(=O)(OC)C(O)/C=C(\Cl)c1ccc(Cl)cc1 (stereo unspecified) | > 100 µM
Cn1cnc([N+](=O)[O-])c1SC1=NCCS1 | > 100 µM
CC1CC(=O)C(CC(=O)O)C1C(C(=O)C(=O)Nc1c(C#N)cccc1[N+](=O)[O-])[N+](=O)[O-] (stereo unspecified) | > 100 µM
COc1cc2c3c(n(CCCCNC(=O)OCC4c5ccccc5-c5ccccc54)c(=O)c2cc1OC)-c1cc2c(cc1C3=O)OCO2 | > 100 µM
NC(CCCCN=Cc1nc(-c2ccccc2)oc1O)C(=O)O (stereo unspecified) | > 100 µM
CC1(C)CCCCCC(C)(CCCCCCCCCCCO)C1=O (stereo unspecified) | 29.4 µM
O=C(N/N=c1/ccoc2cccnc12)N1CCN(c2ncccn2)CC1 | 5.12 µM
c1ccc2c(-c3nc4ccccc4[nH]3)cccc2c1 | 27.3 µM
COc1ccccc1-c1nc2ccccc2c(=O)[nH]1 | > 100 µM
COC(=O)c1c(C)cc2c(c1O)C1(O)C(=O)c3cc4c(c(O)c3C(=O)C1(OC)C(O)C2)C(=O)C=C(NC1OC(C)C(OC)C(O)C1OC)C4=O (stereo unspecified) | 0.0502 µM
CC(C)[Si](OCC1CC(C[C@H]2CC(C[C@H]3C[C@@H](CO[Si](C(C)C)(C(C)C)C(C)C)OC(C)(C)O3)OC(C)(C)O2)OC(C)(C)O1)(C(C)C)C(C)C (stereo partly specified) | > 100 µM
Cc1ccc(NC(=O)C(=O)C2NC(=S)NC2=O)c([N+](=O)[O-])c1 (stereo unspecified) | > 100 µM
COc1cc(/C=C/C(=O)C(C(=O)/C=C/c2ccc(OC(=O)CCNc3nnc(C)s3)c(OC)c2)C(=O)CCNc2nnc(C)s2)ccc1OC(=O)CCNc1nnc(C)s1 | 3.57 µM
O=C(O)/C=C/c1cnc[nH]1 | > 500 µM
Cc1cc(O)ccc1O | 81.3 µM
Cc1nn(-c2ccccc2)c2c1C(c1cc3ccccc3nc1Cl)NC(=S)N2 (stereo unspecified) | > 100 µM
COc1cc2c3c(n(CCCNC(=O)OCC4c5ccccc5-c5ccccc54)c(=O)c2cc1OC)-c1cc2c(cc1C3=O)OCO2 | > 61.2 µM
O=C1/C(=C/c2ccc([N+](=O)[O-])o2)Oc2ccccc21 | 2.93 µM

###

- System: MDA-MB-231 breast
- method: NCI tumour cell line growth inhibition, 48 h

compound | TGI
Cc1nc(N)c(N2CCN(Cc3ccccc3)CC2)c(=O)[nH]1 | > 100 µM
CC(=O)NC(CCCCNC(=O)OC(C)(C)C)C(=O)O (stereo not given) | > 100 µM
c1ccc2c(-c3nc4ccccc4[nH]3)cccc2c1 | > 100 µM
COc1cc(C=Nc2ccc(S(N)(=O)=O)cc2)cc(OC)c1 | > 50 µM
CC(C)CCNC(=O)c1ccc(CNC(=O)/C=C/c2csc(-c3ccccc3)n2)cc1 | > 100 µM
COc1ccccc1-c1nc2ccccc2c(=O)[nH]1 | > 100 µM
CC(=O)O[C@H]1[C@@H](OC2CCCC2(c2ccccc2)c2ccccc2)O[N+]([O-])=C[C@@]12COCc1cc3c(cc12)OCO3 (stereo not given in full) | > 43.2 µM
COc1ccc2cc3[n+](cc2c1OC)CCc1cc2c(cc1-3)OCO2 | > 100 µM
O=C1c2cccc3cccc(c23)C(=O)N1CCCCN1CCN(CCCCOc2ccc(-c3nc4ccc(N5CCOCC5)cc4[nH]3)cc2)CC1 | > 100 µM
NC1=NN(c2ccccc2)C2(c3ccncc3C(=O)O)C1C(N)=NN2c1ccccc1 (stereo not given) | > 100 µM
O=C(Nc1cccc([N+](=O)[O-])c1)c1ccc2ccccc2c1O | > 81.9 µM
COc1cc(OC)c2cc(C(=O)O)c(=O)oc2c1 | > 100 µM
C[C@@H]1OC(=O)C[C@H]2CC(=O)N(CCC3CN(S(=O)(=O)C(F)(F)F)c4ccc(Cc5ccc6c(c5)C(CCN5C[C@H]7[C@@H](CC(=O)O[C@H]7C)CC5=O)CN6S(=O)(=O)C(F)(F)F)cc43)C[C@@H]21 (stereo not given in full) | > 100 µM
COc1ccc(/C(=N\O)c2cc(OC)c(OC)c(OC)c2)c(OC)c1N | > 100 µM
c1ccc(/N=N\Nc2ccc(-c3nc4ccccc4o3)cc2)nc1 | > 100 µM
N#Cc1c(NC(=O)c2cccc3ccccc23)sc2c1CCCC2 | > 14.5 µM
O=C(Nc1nncs1)NS(=O)(=O)n1cnc2ccccc21 | > 100 µM
O=C(O)CSc1nnc(CCCCCCCCc2nnc(SCC(=O)O)o2)o1 | > 100 µM
NC(N)=NS(=O)(=O)c1ccc(Nc2c3ccccc3nc3c(C(=O)NC(CO)(CO)CO)cccc23)cc1 | > 100 µM
Cc1cc(N(CCC#N)CCC#N)ccc1/C(N=Nc1ccccc1)=N\NC(=O)c1ccccc1 | > 100 µM
